# measurement target: UniProtKB P34972
# test summary: cAMP assay, CHO cells expressing human CB2 receptors
# Format: cell-based
# test conditions: CHO cells expressing human CB2, cAMP; read-out: human CB2 EC50
// class assignment uses EC50 with these ranges: bottom bin = under 20 nM, middle bin = from 20 nM up to 50 nM, top bin = 50 nM and over

compound	assigned label
CCC(CC)(NC(=O)c1ccc(C2CC2)c(S(=O)(=O)CC(C)C)n1)C(=O)NC	top bin
CC(C)C[C@H](NC(=O)c1ccc(C2CCOC2)c(OCC2CC2)n1)C(N)=O (stereo partly shown)	bottom bin
Cc1nc(C(C)(CC2CC2)NC(=O)c2ccc(N3CC(F)(F)C3)c(OCC3CC3)n2)no1 (stereo not shown)	bottom bin
NC(=O)[C@H](NC(=O)c1ccc(N2CC(F)(F)C2)c(OCC2CC2)n1)C1CC1	top bin
O=C(NN1CCCCC1)c1cccc(C2CCOCC2)n1	top bin
CCC(CC)(NC(=O)c1ccc(N2CCC(F)(F)C2)c(OCC2CC2)n1)C(=O)NC	bottom bin
NC(=O)[C@H](CC1CC1)NC(=O)c1ccc(C2CC2)c(Cc2ccc(F)cc2)n1	bottom bin
CC(C)C[C@H](NC(=O)c1cccc(Cc2ccc(F)cc2)n1)C(N)=O	bottom bin

Query string: Category of CNC(=O)[C@H](CC(C)C)NC(=O)c1ccc(C2CC2)c(OCC2CCCO2)n1 (stereo partly shown) , please.
Result string: bottom bin

---

# measurement target: UniProt:P34972
# test summary: cAMP assay, CHO cells expressing human CB2 receptors
# Format: cell-based
# test conditions: CHO cells expressing human CB2, cAMP; read-out: human CB2 EC50
property name: EC50 (nM)
Please reply with the bare figure in nM and do not write the unit itself.

Query string: Fill blank: measured EC50 of the molecule CC(C)C[C@H](NC(=O)c1ccc(C2CCCO2)c(OCC2CC2)n1)C(N)=O (stereo partly drawn) [Example 115] is ____.
Result string: 6.6

Query string: Fill blank: measured EC50 of the molecule CC(C)(NC(=O)c1ccc(C2CC2)c(OCC2CC2)n1)c1noc(N)n1 [Example 296] is ____.
Result string: 60.8

Query string: Fill blank: measured EC50 of the molecule NC(=O)[C@H](CC1CC1)NC(=O)c1ccc(C(F)(F)F)c(OCC2CC2)n1 [Example 113] is ____.
Result string: 200

---

# measurement target: human CB2 receptors (Homo sapiens (Human), UniProt P34972)
# Sequence (P34972 whole entry): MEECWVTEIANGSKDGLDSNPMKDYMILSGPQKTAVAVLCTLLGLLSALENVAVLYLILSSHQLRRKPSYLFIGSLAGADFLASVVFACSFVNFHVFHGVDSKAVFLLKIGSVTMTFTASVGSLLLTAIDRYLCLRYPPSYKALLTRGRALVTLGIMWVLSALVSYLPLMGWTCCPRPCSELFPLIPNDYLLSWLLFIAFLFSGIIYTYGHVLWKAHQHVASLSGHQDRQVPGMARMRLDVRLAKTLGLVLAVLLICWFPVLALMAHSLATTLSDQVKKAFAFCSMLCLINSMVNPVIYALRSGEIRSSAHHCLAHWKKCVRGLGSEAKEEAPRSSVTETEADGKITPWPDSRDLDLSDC
# test summary: cAMP assay, CHO cells expressing human CB2 receptors
# Type: cell-based
# test conditions: CHO cells expressing human CB2, cAMP; read-out: human CB2 EC50
// class assignment uses EC50 with these ranges: lower range (below 20 nM), middle range (20 nM to below 200 nM), upper range (200 nM or more)

Study these solved cases before continuing.
compound	assigned label
CC(C)C[C@@H](NC(=O)c1ccc(N2CC(F)(F)C2)c(OCC2CC2)n1)c1cccnn1 [Example 354]	lower range
O=C(N[C@@H](CC1CC1)C(=O)NN1CCC(O)C1)c1ccc(C2CC2)c(OCC2CC2)n1 (single isomer, unassigned; (-)) [Example 380]	upper range
CC(C)(NC(=O)c1ccc(C2CCCC2)c(OCC2CC2)n1)c1nccs1 [Example 55]	middle range
CCC(CC)(NC(=O)c1ccc(N2CC(F)(F)C2)c(OCC2CC2)n1)C(=O)NC [Example 86]	middle range
CNC(=O)[C@@H](NC(=O)c1ccc(N2CC(F)(F)C2)c(OCC2CCCO2)n1)C(C)(C)C (some centres unmarked) [Example 206]	middle range

Query string: Category of CNC(=O)[C@@H](NC(=O)c1ccc(C2CC2)c(OCC2CC2)n1)c1ccccc1 [Example 225] , please.
Result string: middle range

Query string: Category of COCCOc1nc(C(=O)N[C@@H](CC2CC2)C(N)=O)ccc1C1CC1 [Example 161] , please.
Result string: middle range

Query string: Category of CC(C)(NC(=O)c1ccc(C2CC2)c(OCC2CC2)n1)c1nccs1 [Example 44] , please.
Result string: lower range

Query string: Category of NC(=O)[C@@H](NC(=O)c1ccc(C2CC2)c(OCC2CC2)n1)c1ccc(Cl)cc1 [Example 329] , please.
Result string: middle range

Query string: Category of Cc1ccc(C(=O)N2CCCCC2)nc1S(=O)(=O)N1CCCCC1 [Example 25] , please.
Result string: upper range

Data origin: patent US9290451B2
